Target: Electric eel AChE (Electrophorus electricus, UniProt O42275)
Construct: purchased Sigma-Aldrich Co. (St. Louis, MO, USA)
Sequence (O42275 24-633): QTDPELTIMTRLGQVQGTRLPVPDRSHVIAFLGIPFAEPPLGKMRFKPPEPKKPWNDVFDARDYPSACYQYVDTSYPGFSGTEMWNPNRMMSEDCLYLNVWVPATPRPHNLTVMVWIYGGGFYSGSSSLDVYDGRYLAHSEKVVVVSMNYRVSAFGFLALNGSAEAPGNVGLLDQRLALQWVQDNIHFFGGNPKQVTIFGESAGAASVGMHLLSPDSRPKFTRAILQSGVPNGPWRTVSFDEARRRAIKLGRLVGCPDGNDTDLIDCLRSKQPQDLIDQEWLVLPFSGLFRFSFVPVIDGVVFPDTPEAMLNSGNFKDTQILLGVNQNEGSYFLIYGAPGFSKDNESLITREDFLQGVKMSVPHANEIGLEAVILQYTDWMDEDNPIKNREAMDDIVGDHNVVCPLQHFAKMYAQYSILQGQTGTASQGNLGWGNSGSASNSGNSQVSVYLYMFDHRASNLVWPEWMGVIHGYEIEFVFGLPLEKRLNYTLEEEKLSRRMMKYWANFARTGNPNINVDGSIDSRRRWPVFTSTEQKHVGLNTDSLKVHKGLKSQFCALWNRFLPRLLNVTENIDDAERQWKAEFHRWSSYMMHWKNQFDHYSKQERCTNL
Test: In vitro ChE enzyme assay (Ellman), AChE
Type: biochemical
Conditions: substrate ATCh; mean ± S.E.M of triplicate experiments; read-out: IC50 AChE
Here the recorded IC50 is given for each entry.
A number alone suffices; assume µM.

chemical.smiles: CC(C)=CCCC(C)=CCc1cc2c(cc1O)oc(=O)c1c3ccc(O)cc3oc21
val: 145

Please turn your attention to the following entry.
Given the entry `O=c1oc2cc(O)ccc2c2oc3cc(O)ccc3c12` , report its measured IC50.
42.3

====

Biological target: horse serum BChE (Equus caballus, UniProt P81908)
Construct: horse serum BChE (EC 3.1.1.8); purchased Sigma-Aldrich Co. (St. Louis, MO, USA); host or cells: horse serum
Sequence (P81908 whole entry): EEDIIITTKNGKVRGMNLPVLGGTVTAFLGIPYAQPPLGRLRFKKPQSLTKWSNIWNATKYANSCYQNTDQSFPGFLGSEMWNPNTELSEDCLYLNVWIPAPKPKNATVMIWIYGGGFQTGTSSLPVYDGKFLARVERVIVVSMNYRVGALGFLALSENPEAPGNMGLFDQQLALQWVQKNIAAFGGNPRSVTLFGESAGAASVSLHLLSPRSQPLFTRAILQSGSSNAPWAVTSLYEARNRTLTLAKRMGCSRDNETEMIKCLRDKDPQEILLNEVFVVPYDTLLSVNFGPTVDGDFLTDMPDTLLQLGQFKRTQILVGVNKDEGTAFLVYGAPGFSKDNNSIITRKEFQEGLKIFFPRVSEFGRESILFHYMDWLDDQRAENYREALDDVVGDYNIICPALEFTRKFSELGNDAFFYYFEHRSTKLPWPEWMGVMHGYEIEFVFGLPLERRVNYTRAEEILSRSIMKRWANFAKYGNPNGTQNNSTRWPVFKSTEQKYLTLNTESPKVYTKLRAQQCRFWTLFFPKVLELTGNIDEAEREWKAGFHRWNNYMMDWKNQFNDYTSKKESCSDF
Assay: Enzyme kinetic analysis for BChE inhibition (Lineweaver-Burk and secondary plots)
Type: biochemical
Settings: secondary plot; binding constant of inhibitor with free enzyme; read-out: Ki value Kic, BChE
measure: Ki (µM)
A number alone suffices; assume µM.

Given the entry `O=c1oc2cc(O)ccc2c2oc3cc(O)ccc3c12` , report its measured Ki.
12.1

====

Molecular target: BACE1 (Homo sapiens)
Construct: purchased
Assay: Enzyme kinetic analysis for BACE1 inhibition (Lineweaver-Burk and secondary plots)
Type: biochemical
Conditions: secondary plot; binding constant of inhibitor with free enzyme; read-out: Ki value Kic, BACE1
measure: pKi
Convention used: pKi is expressed as -log10 of the molar concentration.

So what pKi did CC(C)=CCCC(C)=CCc1cc2c(cc1O)oc(=O)c1c3ccc(O)cc3oc21 [Puerarol] get with BACE1 (Homo sapiens)?
4.47

====

Molecular target: BACE1 (Homo sapiens)
Construct: purchased
Assay: Enzyme kinetic analysis for BACE1 inhibition (Lineweaver-Burk and secondary plots)
Assay type: biochemical
Details: secondary plot; binding constant of inhibitor with enzyme-substrate complex; read-out: Ki value Kiu, BACE1
measure: pKi
Convention used: pKi is expressed as -log10 of the molar concentration.

So what pKi did `CC(C)=CCCC(C)=CCc1cc2c(cc1O)oc(=O)c1c3ccc(O)cc3oc21` get with BACE1 (Homo sapiens)?
4.14

====

# pIC50 measurements, system: BACE1 (Homo sapiens, UniProt P56817)
# Sequence (P56817 46-501): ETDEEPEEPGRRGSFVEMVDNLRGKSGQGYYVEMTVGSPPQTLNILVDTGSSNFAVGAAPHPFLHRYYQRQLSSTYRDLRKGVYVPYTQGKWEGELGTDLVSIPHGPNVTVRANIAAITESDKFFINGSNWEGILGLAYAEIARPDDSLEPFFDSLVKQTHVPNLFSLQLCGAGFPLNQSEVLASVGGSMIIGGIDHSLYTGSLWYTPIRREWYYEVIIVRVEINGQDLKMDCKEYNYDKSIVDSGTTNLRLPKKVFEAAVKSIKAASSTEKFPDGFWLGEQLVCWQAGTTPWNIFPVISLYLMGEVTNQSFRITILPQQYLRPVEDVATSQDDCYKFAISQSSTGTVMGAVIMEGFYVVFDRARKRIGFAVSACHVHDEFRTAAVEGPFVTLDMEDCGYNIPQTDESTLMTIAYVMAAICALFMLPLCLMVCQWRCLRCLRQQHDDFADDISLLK
Convention used: pIC50 is expressed as -log10 of the molar concentration.

chemical.smiles: O=c1oc2cc(O)ccc2c2oc3cc(O)ccc3c12
val: 4.29

Please turn your attention to the following entry.
So what pIC50 did `CC(C)=CCCC(C)=CCc1cc2c(cc1O)oc(=O)c1c3ccc(O)cc3oc21` get with BACE1 (Homo sapiens, UniProt P56817)?
4.55

====

Target: Electric eel AChE (Electrophorus electricus, UniProt O42275)
Construct: purchased Sigma-Aldrich Co. (St. Louis, MO, USA)
Assay: In vitro ChE enzyme assay (Ellman), AChE
Assay type: biochemical
measure: IC50 (µM)
A number alone suffices; assume µM.

Given the entry COc1ccc2cc3[n+](cc2c1OC)CCc1cc2c(cc1-3)OCO2 [Berberine, berberine chloride, reference compound] , report its measured IC50.
2.22

Reference for the values: paper PMC6017171
